Give EC50 for every item shown.
Biological target: T1, HA-GCN4 hAPRIL (amino acid residues 105-250) (human, UniProt O75888 105-250)
T1 construct: Bought (R&D Systems); also called HA-tagged GCN4 human APRIL; HA-GCN4-huAPRIL; not shown: N-terminal HA tag; GCN4 isoleucine zipper oligomerization domain
T1 sequence: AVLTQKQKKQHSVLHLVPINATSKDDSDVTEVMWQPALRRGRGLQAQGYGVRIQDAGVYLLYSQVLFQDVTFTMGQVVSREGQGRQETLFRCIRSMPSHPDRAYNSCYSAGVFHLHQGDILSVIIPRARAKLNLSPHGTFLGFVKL
Assay: indirect ELISA on human APRIL
Provide the reading as a plain figure in pM.

Memo: 2419-0806 (antibody, V domains shown) VH: EVQLVQSGAEVKKPGESLKISCKASGYTFTDYTIHWVRQMPGKGLEWMGWIYPLRGSINYSPSFQGQVTISADKSISTVYLQWSSLKASDTAMYFCARHGAYYSNAFDYWGQGTLVTVSS VL: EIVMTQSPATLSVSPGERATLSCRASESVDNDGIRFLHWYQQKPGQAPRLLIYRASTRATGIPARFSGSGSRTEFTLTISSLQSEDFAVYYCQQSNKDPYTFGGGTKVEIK , reported EC50: 2.31

The recorded EC50 for entry monoclonal antibody 4035-062 (antibody, IgG1, V domains shown) VH: QVQLQESGPGLVKPSETLSLTCTVSGFSLTIYDVHWVRQPPGKGLEWIGVIWSDGSTDYNPSLKSRVTISKDTSKNQVSLKLSSVTAADTAVYYCARNWVDQAWFAYWGQGTLVTVSS VL: DIQMTQSPSSLSASVGDRVTITCRASKNIYSYLAWYQQKPGKAPKLLVYNAKTLPEGVPSRFSGSGSGTDFTLTISSLQPEDFATYYCQHHYGTPLTFGQGTKLEIK equals 1.28

What the record says about 2419-1305 (antibody, V domains shown) VH: QVQLVQSGAEVKKPGASVKVSCKASGYTFTDYTIHWVRQATGQGLEWMGWIYPLRGSINYAQKFQGRVTMTANKSISTVYMELSSLRSEDTAVYFCARHGAYYSNAFDYWGQGTLVTVSS VL: EIVMTQSPATLSVSPGERATLSCRASESVDNDGIRFLHWYQQKPGQAPRLLIYRASNRETGIPARFSGSGSGTEFTLTISSLQSEDFAVYYCQQSNKDPYTFGGGTKVEIK : EC50 is 2.41

Kindly note the recorded EC50 for 2419-1310 (antibody, V domains shown) VH: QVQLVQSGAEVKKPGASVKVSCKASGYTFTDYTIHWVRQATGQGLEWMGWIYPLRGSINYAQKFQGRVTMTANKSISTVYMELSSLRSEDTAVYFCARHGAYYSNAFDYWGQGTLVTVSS VL: DIVMTQSPDSLAVSLGERATINCKSSQSVDNDGIRFLHWYQQKPGQPPKLLIYRASTRESGVPDRFSGSGSGTDFTLTISSLQAEDVAVYYCQQSNKDPYTFGGGTKVEIK , which is 2.19

Given item monoclonal antibody 2419-1406 (antibody, V domains shown) VH: QVQLVQSGAEVKKPGASVKVSCKASGYTFTDYTIHWVRQATGQGLEWMGWIYPLRGSINYAQKFQGRVTMTADKSISTVYMELSSLRSEDTAVYFCARHGAYYSNAFDYWGQGTLVTVSS VL: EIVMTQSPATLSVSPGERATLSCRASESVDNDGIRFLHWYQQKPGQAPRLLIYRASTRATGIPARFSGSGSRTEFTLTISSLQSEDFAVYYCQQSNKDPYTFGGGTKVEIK , the value recorded as its EC50 is 3.34

monoclonal antibody 2419-0205 (antibody, IgG2, V domains shown) VH: QVQLVQSGAEVKKPGSSVKVSCKASGYTFTDYTIHWVRQAPGQGLEWMGWIYPLRGSINYAQKFQGRVTITADKSTSTAYMELSSLRSEDTAVYFCARHGAYYSNAFDYWGQGTLVTVSS VL: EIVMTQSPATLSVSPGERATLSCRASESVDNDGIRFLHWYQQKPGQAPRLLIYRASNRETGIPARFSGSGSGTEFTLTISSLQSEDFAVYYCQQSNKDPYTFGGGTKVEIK has a reported EC50 of 2.26

Kindly note the recorded EC50 for 2419-1306 (antibody, V domains shown) VH: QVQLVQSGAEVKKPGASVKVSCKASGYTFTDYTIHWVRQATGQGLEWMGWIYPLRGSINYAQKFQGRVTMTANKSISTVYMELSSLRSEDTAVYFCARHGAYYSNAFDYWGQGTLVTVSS VL: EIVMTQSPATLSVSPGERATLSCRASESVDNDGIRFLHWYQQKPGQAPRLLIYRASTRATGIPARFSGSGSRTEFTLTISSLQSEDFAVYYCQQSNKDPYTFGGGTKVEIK , which is 3

Provenance of the data: patent US20170145086A1
